# Protocol summary: Tissue levels after a single oral administration in mice (microbiological assay)
# Assay type: in vivo
# Conditions: mouse, kidney, 50 mg/kg oral, 0.5 hour; read-out: Kidney concentration
Observed property: concentration at 0.5 h (ng/mL)

# Molecule, Observed property, Quantity unit, Recorded result
measured = [
    ("CCn1cc(C(=O)O)c(=O)c2cc(F)c(N3CCN(Cc4ccc(N)cc4)CC3)c(F)c21 [compound (I)]", "concentration at 0.5 h", "ng/mL", 13000),
]

----------
# Protocol summary: Tissue levels after a single oral administration in rats (microbiological assay)
# Assay type: in vivo
# Conditions: rat, lung, 50 mg/kg oral, 2.0 hour; read-out: Lung concentration

# Molecule, concentration at 2 h (µg/mL)
data = [
    ("CCn1cc(C(=O)O)c(=O)c2cc(F)c(N3CCN(Cc4ccc(N)cc4)CC3)c(F)c21 [compound (I)]", 2.1),
]

Measured values drawn from patent US4429127A for this set.
